Where do these numbers come from? They come from PubChem BioAssay (NCI).

# Test system: NCI-H460 lung
# assayText: NCI tumour cell line growth inhibition, 48 h
Give measured TGI for each item. Keep answers brief.

Recorded results for 5 compounds are shown here.
[
  {
    "compound": "NNC(=O)/C(NC(=O)c1ccccc1)=C(\\N)c1cccc([N+](=O)[O-])c1",
    "TGI": "> 100 µM"
  },
  {
    "compound": "COC(C)=NCCC1=CCCCC1",
    "TGI": "> 100 µM"
  },
  {
    "compound": "CS(=O)(=O)N1CCC(Nc2ncc(C(=O)c3c(F)cccc3F)c(N)n2)CC1",
    "TGI": "> 25 µM"
  },
  {
    "compound": "COc1ccc(S(=O)(=O)N/N=C(\\C)CN2C(=O)c3ccccc3C2=O)cc1OC",
    "TGI": "> 100 µM"
  },
  {
    "compound": "Cc1ccc2ncnc(N(C)C3CCCCC3)c2c1",
    "TGI": "> 100 µM"
  }
]

Respectfully, I request TGI for each entry included below.
1. CC(=O)N1C(c2[nH]c3ccccc3c2Cc2ccccc2)CCN1c1ccccc1 (configuration not stated)
2. C#CN1C(=O)c2c(c(-c3ccccc3)c(-c3ccc(Oc4ccc(-c5c(-c6ccccc6)c6c(c(-c7ccccc7)c5-c5ccccc5)C(=O)N(C#C)C6=O)cc4)cc3)c(-c3ccccc3)c2-c2ccccc2)C1=O

## Output
["> 10 µM", "> 100 µM"]

###

I'd appreciate it if you could supply TGI values for the items below.
# Tested on: SN12C renal
# assayText: NCI tumour cell line growth inhibition, 48 h

[
  {
    "molecule": "O=c1[nH][nH]c(=O)n1Cc1ccccc1",
    "studyTarget": "SN12C renal",
    "TGI": "> 100 µM"
  },
  {
    "molecule": "c1ccc2cc(C3NCCc4[nH]cnc43)ccc2c1 (configuration not stated)",
    "studyTarget": "SN12C renal",
    "TGI": "> 100 µM"
  },
  {
    "molecule": "CC(=O)OCc1nnn2c1C(OC(C)=O)CC2 (configuration not stated)",
    "studyTarget": "SN12C renal",
    "TGI": "> 100 µM"
  },
  {
    "molecule": "COc1cccc(CCn2c(N)c(-c3cc(Cl)cc(Cl)c3)c3ccc([N+](=O)[O-])cc3c2=O)c1",
    "studyTarget": "SN12C renal",
    "TGI": "> 86.7 µM"
  },
  {
    "molecule": "COc1ccc(OC)c(C2=C(c3cn(C)c4ccccc34)C(=O)NC2=O)c1",
    "studyTarget": "SN12C renal",
    "TGI": "> 25 µM"
  },
  {
    "molecule": "CC[C@]12C=CCN3CC[C@@]4(c5ccc(OC)cc5N(C)[C@H]4[C@@](O)(C(=O)OC)[C@@H]1OC(=O)CCC(=O)O[C@H]1CC[C@H]4[C@@H]5CCC6=CC(=O)CC[C@@H]6[C@H]5CC[C@]14C)[C@@H]32",
    "studyTarget": "SN12C renal",
    "TGI": "> 50 µM"
  }
]

Turning now to a further molecule:
response.value for COC(=O)C(=O)C(C(=O)OC)C(=O)C(=O)Nc1cc(Cl)c(C)cc1S(=O)(=O)O (configuration not stated) (field: TGI) = > 100 µM

###

# Tested on: EKVX NSCLC
# assayText: NCI tumour cell line growth inhibition, 48 h
measuredAttribute: TGI

For orientation, consider the following solved cases.
[
  {
    "compound": "CC[O-].CC[O-].O=C1C=C([O-])C(=O)c2ccccc21.O=C1C=C([O-])C(=O)c2ccccc21.[Ti+4]",
    "studyTarget": "EKVX NSCLC",
    "TGI": "> 100 µM"
  },
  {
    "compound": "CSC12c3cc(C)n(-c4ccc(I)cc4)c3CC(C)(C)CN1C(=O)C2Oc1ccccc1 (centres undefined)",
    "studyTarget": "EKVX NSCLC",
    "TGI": "> 100 µM"
  },
  {
    "compound": "O=C(/C=C(/C=C/c1cccc2[nH]ccc12)OB(F)F)/C=C/c1cccc2[nH]ccc12",
    "studyTarget": "EKVX NSCLC",
    "TGI": "5.54 µM"
  }
]

Provide each entry's TGI from the list below.
1. CC/C(Cl)=N\OC(=O)Nc1ccc(F)c(Cl)c1
2. Cc1nc2ccc(-n3ncc(C(=O)c4cc5ccccc5[nH]4)c3N)cc2[nH]1
3. COc1ccc2[nH]c(C(=O)OCc3ccc4c(Br)cc(Br)c(O)c4n3)cc2c1
4. Cn1c2ncccc2n2c(=O)cc(O)cc12

## Output
32.9 µM
> 100 µM
2.82 µM
> 100 µM

###

# System: HL-60(TB) leukemia
# assayText: NCI tumour cell line growth inhibition, 48 h
measuredAttribute: TGI

[
  {
    "compound": "Clc1nc(Cl)c2ncn(-c3ccccc3)c2n1",
    "TGI": "4.21 µM"
  },
  {
    "compound": "Cc1cn(C2CC(O)C(Cn3nncc3Cn3cnc4c(N)ncnc43)O2)c(=O)[nH]c1=O (stereo unspecified)",
    "TGI": "> 100 µM"
  },
  {
    "compound": "CSC12c3cc(C)n(-c4ccc(I)cc4)c3CC(C)(C)CN1C(=O)C2Oc1ccccc1 (stereo unspecified)",
    "TGI": "> 100 µM"
  },
  {
    "compound": "Cc1ccc(NC(=O)c2cccc(OP(=O)(Nc3ccc(C)cc3)Nc3ccc(C)cc3)c2)cc1",
    "TGI": "> 100 µM"
  },
  {
    "compound": "CCCCCCCCCCCCCCCC(=O)NS(=O)(=O)OC[C@H]1O[C@@H](n2cnc3c(N)ncnc32)[C@H](O)[C@@H]1O",
    "TGI": "4.72 µM"
  }
]

Consider now this further compound.
Entry COC(=O)C1c2cc3c(c(O)c2CCC1(C)O)C(=O)c1c(O)cc2c(c1C3=O)OC1OC2(C)C(O)C(N(C)C)C1O (stereo unspecified) — recorded TGI = 2.8 µM

###

# Test system: SNB-75 CNS
# assayText: NCI tumour cell line growth inhibition, 48 h
measuredAttribute: TGI

Some entries whose results are on file:
[
  {
    "compound": "CCOC(=O)C1=C(C)NC2SC(=O)/C(=C\\c3cccc(Cl)c3)N2C1c1ccccc1 (stereo unspecified)",
    "TGI": "> 100 µM"
  },
  {
    "compound": "CC(=O)N1C(c2[nH]c3ccccc3c2Cc2ccccc2)CCN1c1ccccc1 (stereo unspecified)",
    "TGI": "> 10 µM"
  },
  {
    "compound": "CCCCC/C=C\\C=C\\CCCCCCCCC(=O)OC",
    "TGI": "> 100 µM"
  },
  {
    "compound": "COc1ccccc1N1CCN(S(=O)(=O)c2ccc(Cl)cc2)C1=N",
    "TGI": "> 100 µM"
  },
  {
    "compound": "NS(=O)(=O)c1ccc(N=Nc2c(O)[nH]c3ccc(C(=O)NCCCn4ccnc4)cc23)cc1",
    "TGI": "> 25 µM"
  },
  {
    "compound": "c1cc2c(cc1C1OCC3C(c4ccc5c(c4)OCO5)OCC13)OCO2 (stereo unspecified)",
    "TGI": "> 100 µM"
  }
]

Below is a list of compounds. For each, state its recorded TGI.
1. c1ccc2c(c1)CCN1CCc3ccccc3C1C2 (stereo unspecified)
2. NNC(=O)/C(NC(=O)c1ccccc1)=C(\N)c1cccc([N+](=O)[O-])c1
3. N#CCCC1(CCC#N)S(=O)(=O)OCCOS1(=O)=O
4. Nc1nc2ccc(CNc3ccc(C(=O)NC(CC(=O)O)C(=O)O)cc3)cc2c(=O)[nH]1 (stereo unspecified)
5. OC1C2CCCCN2C[C@@H](O)[C@H]1O (stereo partly specified)

## Output
["> 100 µM", "> 100 µM", "> 100 µM", "> 100 µM", "> 100 µM"]

###

Would you mind telling me the reported TGI of each entry?
# System: NCI-H226 lung
# assayText: NCI tumour cell line growth inhibition, 48 h
Where a SMILES comes first, the peptide text is derived from it. [ ]: non-standard residue; d: D form. The star is where a group is joined. ξ: configuration not given here. NMeY = CN[C@@H](Cc1ccc(O)cc1)C(=O)O; Cbz = O=C(OCc1ccccc1)*; ξA = CC(N)C(=O)O

Some solved cases for reference:
[
  {
    "molecule": "O=c1[nH][nH]c(=O)n1Cc1ccccc1",
    "studyTarget": "NCI-H226 lung",
    "result": "> 100 µM"
  },
  {
    "molecule": "Cc1nc2ccc(-n3ncc(C(=O)c4cc5ccccc5[nH]4)c3N)cc2[nH]1",
    "studyTarget": "NCI-H226 lung",
    "result": "49.9 µM"
  },
  {
    "molecule": "NNC(=O)/C(NC(=O)c1ccccc1)=C(\\N)c1cccc([N+](=O)[O-])c1",
    "studyTarget": "NCI-H226 lung",
    "result": "> 100 µM"
  },
  {
    "molecule": "COc1ccc(C[C@@H](C(=O)N[C@@H](C)C(N)=O)N(C)C(=O)[C@@H]2CCCN2C(=O)[C@H](CC(C)C)NC(=O)C(C)NC(=O)OCc2ccccc2)cc1 (some centres undefined) (Cbz-[ξA]LP[NMeY](Me)A-NH2)",
    "studyTarget": "NCI-H226 lung",
    "result": "> 100 µM"
  },
  {
    "molecule": "O=c1cccccc1[O-].O=c1cccccc1[O-].O=c1cccccc1[O-].[Nd+3]",
    "studyTarget": "NCI-H226 lung",
    "result": "> 100 µM"
  }
]

Each molecule below has a reported value. Please supply its TGI.
1. C=C(C)COc1ccc2c(c1)CCC1C2CCC2(C)C(=O)/C(=N/O)CC12 (centres undefined)
2. Cc1cc(-c2nc3cc(F)ccc3s2)ccc1N
3. CNC(=O)O/N=C1\N(C)CN(c2ccccc2)C12CCN(CCCC(=O)c1ccc(F)cc1)CC2

## Output
["26.6 µM", "> 93.6 µM", "> 100 µM"]

Provide TGI values for the following items, in order.
1. CCCCCC(=O)OC[n+]1ccc2c(C)c3[nH]c4ccc(OC)cc4c3c(C)c2c1
2. COc1ccc2nc3cccc([N+](=O)[O-])c3c(NCCC(=O)O)c2c1
3. NC(=O)c1c[nH]c2ncnc(N)c12
4. CCCCCCC(=O)OC[n+]1ccc(-c2c(COC(=O)NC(C)C)c(COC(=O)NC(C)C)c3n2CCC3)cc1
5. CC(C)N(C(C)C)S(=O)(=O)CC12CCC(C/C1=N\O)C2 (centres undefined)

## Output
["31 µM", "> 10 µM", "> 100 µM", "> 100 µM", "> 100 µM"]

// batch mode: one TGI value per listed entry
1. CN(C)CC1(Cc2ccccc2)CC/C(=C\c2ccccc2)C1=O (centres undefined)
2. COc1ccc(S(=O)(=O)N/N=C(\C)CN2C(=O)c3ccccc3C2=O)cc1OC
3. O=C1CC(n2ccnc2)c2c(Cl)sc(Cl)c21 (centres undefined)
4. CCC1=CC(OCc2ccccc2)C(CCN(Cc2ccccc2)C(=O)OCc2ccccc2)C1 (centres undefined)
5. COc1ccccc1CNCCCN1C(=O)c2ccc3c4c(ccc(c24)C1=O)C(=O)N(CCCNCCCCNCCCN)C3=O

## Output
["> 100 µM", "> 100 µM", "77.1 µM", "36.5 µM", "2.71 µM"]

Look up TGI for the entries below, preserving their order.
1. CCCCC/C=C\C=C\CCCCCCCCC(=O)OC
2. C/C=C1\Oc2ccc(OC)cc2S1(=O)=O
3. CCOC(=O)C(C(=O)OCC)c1cc(-c2cc3ccccc3o2)oc(=O)c1C#N
4. C/C(=C\[Si](C)(C)c1ccco1)C(C)(O)[C@H](C)O (some centres undefined)
5. CN1C(=O)C(=Cc2ccc(Br)cc2)C(=O)N(C)C1=O
6. COc1ccc(/C(C)=C2\CCCN(Cc3ccccc3)C2)cc1

## Output
1. > 100 µM
2. > 100 µM
3. 41.9 µM
4. > 100 µM
5. > 100 µM
6. 63.6 µM

Dear reader, for each entry below, please note its TGI.
1. CCOC(=O)c1c(-c2ccccc2)n2c(=O)cc(C)c3c(O)c(O)cc1c32
2. CC(C)CCNC(=O)c1ccc(CNC(=O)/C=C/c2ccc3ccccc3c2)cc1
3. COc1cccc(C(=O)NNc2nc(Cl)nc(N3CCN(C(c4ccccc4)c4ccccc4)CC3)n2)c1
4. N#Cc1c(C#N)c(SSc2c(C#N)c(C#N)c(N)n2-c2cccc3ccccc23)n(-c2cccc3ccccc23)c1N
5. N#CCCC1(CCC#N)S(=O)(=O)OCCOS1(=O)=O

## Output
1: 42.1 µM; 2: > 100 µM; 3: 38 µM; 4: 56.3 µM; 5: > 100 µM
